Data provenance is patent US20090048164A1.

- TARGET ENTITY: T1, Bcl-w
- T1 chain: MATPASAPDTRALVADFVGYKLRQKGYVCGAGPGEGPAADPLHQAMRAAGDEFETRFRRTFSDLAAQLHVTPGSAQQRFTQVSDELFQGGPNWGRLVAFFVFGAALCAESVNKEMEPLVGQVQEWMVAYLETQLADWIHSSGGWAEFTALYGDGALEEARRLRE
- PROTOCOL: competition phage ELISA
Overview of recorded Fold/wt for various binders
Numbers only; they are read as fold.

The following binders have reported results that may help.
BINDER	Fold/wt [fold]
NLWAAQRYGRELRRMSDEFVASFKKG (M13 phage display: FLAG-26mer-GGGT-g3(249-406)) [Bad BH3 D21A, phage-displayed]	1
NLWAAQRYGRELRRMSDEFVDSFKKE (M13 phage display: FLAG-26mer-GGGT-g3(249-406)) [Bad BH3 G26E, phage-displayed]	1
NLWAAQRYGRELRRMSDEFVDAFKKG (M13 phage display: FLAG-26mer-GGGT-g3(249-406)) [Bad BH3 S22A, phage-displayed]	2
NLWAAQRYGRELRRMSDAFVDSFKKG (M13 phage display: FLAG-26mer-GGGT-g3(249-406)) [Bad BH3 E18A, phage-displayed]	1

Can you share its Fold/wt? I mean this binder: NLWAAQRYGRELARMSDEFVDSFKKG (M13 phage display: FLAG-26mer-GGGT-g3(249-406)) [Bad BH3 R13A, phage-displayed]
1

Next up: NLWAAQRYGAELRRMSDEFVDSFKKG (M13 phage display: FLAG-26mer-GGGT-g3(249-406)) [Bad BH3 R10A, phage-displayed]
1

Next up: NLWEAQRYGRELRRMSDEFVDSFKKG (M13 phage display: FLAG-26mer-GGGT-g3(249-406)) [Bad BH3 A4E, phage-displayed]
1

Next up: NLWAAQAYGRELRRMSDEFVDSFKKG (M13 phage display: FLAG-26mer-GGGT-g3(249-406)) [Bad BH3 R7A, phage-displayed]
1

Next up: NLWAAQRYGRELRRMSDEFVDSFKAG (M13 phage display: FLAG-26mer-GGGT-g3(249-406)) [Bad BH3 K25A, phage-displayed]
1
